The measured values listed here are drawn from PubChem BioAssay (NCI).

- Test system: A549 NSCLC
- method-notes: NCI tumour cell line growth inhibition, 48 h
measured-attribute: TGI

Completed entries (count: 4):
// TGI value for O=[N+]([O-])c1cc(C2ON=C(c3ccccc3)N2C23CC4CC(CC(C4)C2)C3)ccc1Cl (stereo not given) : > 100 µM

Reported TGI of COC(=O)C1=C(C(=O)OC)C2CCC1CC2=O (stereo not given) : > 100 µM

// recorded TGI for Nc1nc(=O)n(C2CC(O)C(CO)O2)c2nc(-c3ccc(-c4ccccc4)cc3)cnc12 (stereo not given) : > 100 µM

Consider `COc1cc(-c2cc(C(=O)N3CCN(C(=O)c4ccccc4NCc4cccs4)CC3)nc3cc(-c4ccccc4)nn23)cc(OC)c1OC` . Its measured TGI is > 100 µM

More entries:
For record `O=C1C=C(NCCc2ccc(O)cc2)C(=O)C=C1NCCc1ccc(O)cc1` the listed TGI is > 100 µM

----------
- Test system: MCF7 breast
- method-notes: NCI tumour cell line growth inhibition, 48 h; in the data active = GI50 below about 0.43 µM; inactive = the rest
// one of active, inactive, no free text

Status in this test for `COC(=O)/C=C/c1cc(OC)c2c(c1)[C@@H](C(=O)OC)[C@H](c1ccc(OC)c(OC)c1)O2` ?
active

Short answer needed: outcome of this test for Nc1c2c(c(O)c3c1=C(CO)C=N3)=NCCS2=O (configuration not stated) ?
inactive

Please state the recorded outcome for this compound: `CN(Cc1cccc(Cl)c1)c1ccc(CO)c(Cl)c1`
inactive

Test call, this compound: `CCCCCCCCCCCC(=O)[O][Sn]([CH2]CCC)([CH2]CCC)[CH2]CCC`
active

Others:
// param item: `Cc1nc(N(C)C)nc(-c2cccc(-c3ccn(CCN(C)C)n3)c2)c1C` ; yields the recorded call
inactive

What classification did `CCOc1ccc(-n2cc(-c3ccc(N(C)C)cc3)[n+]3c2CCCCC3)cc1` end up with in this test?
active

Assay outcome for `C=CCOc1ccc2c(c1)CC[C@@H]1[C@@H]2CC[C@]2(C)C(=O)/C(=N/O)C[C@@H]12` : what was it?
inactive

Kindly provide the recorded test outcome for the following compound: `N=C(N)c1ccc(-c2ccc(-c3ccccc3)o2)o1`
inactive

Which outcome was entered for the compound NC(CSC(c1ccccc1)(c1ccccc1)c1ccc(Br)cc1)C(=O)O (configuration not stated) in this test?
active

// outcome(item) with item = COc1cc(/C=C2\CCCC3=C2N=C2SC=NN2C3c2cc(OC)c(OC)c(OC)c2)cc(OC)c1OC (configuration not stated)
inactive

Test call for this compound, please: `O=C(Nc1ccc(-n2cc(-c3ccncc3)c(-c3ccc(Cl)c(O)c3)n2)cc1)c1ccc(Cl)c(C(F)(F)F)c1`
inactive

Each compound tested received a call. Report the one for `O=C1/C=C/[C@@H](O)[C@@H]2C[C@@H](O)C[C@H]2/C=C/CCCCO1` .
active

----------
- Tested on: OVCAR-5 ovarian
- method-notes: NCI tumour cell line growth inhibition, 48 h
measured-attribute: TGI

Consider the worked cases shown below.
Entry `COc1cc(CNC(=O)CCCCCCCCCCSC#N)ccc1O` ; assay system OVCAR-5 ovarian; TGI recorded at 85.8 µM

GET /values?item= COC(=O)CC(c1ccccc1)C(C#N)(OP1(=O)OC(c2ccccc2)C(C)N1C)c1ccccc1 (stereo unspecified) &system= OVCAR-5 ovarian returns TGI: > 100 µM

Reading of TGI for `C[C@H](OC(=O)/C=C/c1ccc(O)c(O)c1)[C@H](C)OC(=O)/C=C/c1ccc(O)c(O)c1` with OVCAR-5 ovarian: 33.1 µM

Entry `O=c1c(-c2nc3ccccc3[nH]2)cc2ccccc2n1Cc1cn(Cc2ccc(F)cc2)nn1` ; assay system OVCAR-5 ovarian; TGI recorded at 7.84 µM

Note to self: TGI of `COc1cccc(/C=N/[N-]C(N)=O)c1[O-].[Cu+2].c1ccncc1` with OVCAR-5 ovarian was 45.1 µM

`COc1ccc(/C=C2\NC(=S)N(CN3CCOCC3)C2=O)cc1` tested on OVCAR-5 ovarian gave TGI: > 100 µM

Others:
Value sought: TGI, system OVCAR-5 ovarian, item `Cc1ccc(Sc2cc([N+](=O)[O-])cc(Sc3ccc(C)cc3)c2Sc2ccc(C)cc2)cc1` . Result: > 100 µM

Entry `COC(=O)/C=C/c1cc(OC)c2c(c1)[C@@H](C(=O)OC)[C@H](c1ccc(OC)c(OC)c1)O2` , tested on OVCAR-5 ovarian, has a reported TGI of > 100 µM

TGI of `CCOC(=O)CCNC(=O)c1cc(C)cc2c1Oc1c(cc(C)cc1C(=O)NCCC(=O)OCC)S2` , assay on OVCAR-5 ovarian, is > 100 µM

Reading of TGI for `NC(=O)NC(=O)c1cccc(C(=O)NC(N)=O)n1` with OVCAR-5 ovarian: > 100 µM

Value (TGI, OVCAR-5 ovarian) for record O=C1OC(=O)C2C1C1(c3ccccc3)OC2(c2ccccc2)c2c(Br)c(Br)c(Br)c(Br)c21 (stereo unspecified) = > 100 µM

For the compound `O=c1oc2ccc([N+](=O)[O-])cc2cc1-c1csc(-c2ccccc2)n1` , the measured TGI on OVCAR-5 ovarian was > 100 µM

The value of TGI recorded for O=c1c2ccc(Br)cc2nc(-c2ccccc2)n1NC1OC(CO)C(O)C(O)C1O (stereo unspecified) when tested on OVCAR-5 ovarian reads > 100 µM

Observed TGI on OVCAR-5 ovarian, entry `COc1ccc2c(C(=O)NCCCCCC(=O)O)cc3cc4c(cc3c2c1)OCO4` , equals > 100 µM

----------
- Tested on: NCI-H23 lung
- method-notes: NCI tumour cell line growth inhibition, 48 h
Each item that follows carries a reported TGI.

Here is how some compounds turned out for TGI.
# lookup: `COC(=O)c1cccc(COc2ccc([N+](=O)[O-])cc2Cl)c1` on NCI-H23 lung, TGI = > 100 µM

// compound `CCn1cc(C(=O)O)c(=O)c2cc(F)c(N3CCNCC3)nc21` , assay NCI-H23 lung, TGI value: > 100 µM

***
Form: item CC(=O)Oc1cc(OC(C)=O)c(OC(C)=O)c2c1CC1C(=O)C3(CCc4ccccc43)C(=O)C1C2 (stereo not given) ; test system NCI-H23 lung; TGI: 40.2 µM

Let me check: CCN(CC)C(=O)CCNC(C)Cc1c[nH]c2ccccc12 (stereo not given) , system NCI-H23 lung, measured TGI is > 100 µM

Field TGI (system: NCI-H23 lung) for entry O=C1CSC2(CC(/C=C/c3ccccc3[N+](=O)[O-])=NN2c2cccc(S(=O)(=O)O)c2)N1c1nc2ccccc2s1 (stereo not given) = 34.4 µM

Measured on NCI-H23 lung, `C[C@@H](Br)[C@@H]1CC[C@H]2c3[nH]c4ccccc4c3CCN2C1` has a documented TGI of 67.1 µM

`COc1ccc(OC)c2c1-c1nnnn1CCC2(C)C` tested on NCI-H23 lung gave TGI: > 100 µM

The measured TGI that `O=c1c(Br)ccc(Br)cc1Br` showed for NCI-H23 lung is 3.66 µM

Reported NCI-H23 lung TGI for item `CN(C)C=Nc1cccc2c1NSN2` was > 100 µM

The measured TGI that CSc1nc(NC2OC(CO)C(O)C(O)C2O)c(N)c(=O)[nH]1 (stereo not given) showed for NCI-H23 lung is > 100 µM

Tested system NCI-H23 lung; TGI recorded for COc1ccc(/C=C2/C(=O)C(c3ccccc3)N(c3ccccc3)C2=O)cc1OC (stereo not given) was > 10 µM

Reported TGI (NCI-H23 lung) for entry `Nc1c(C(=O)Nc2cccc3ccccc23)sc2nc3c(cc12)CCCCCC3` is > 50 µM

Case `O=C(O)c1cc2sc(C(=O)O)cc2s1` , NCI-H23 lung, TGI recorded as > 100 µM

Per the reported NCI-H23 lung data, `O=C1CN2CCN(CC2)CC(=O)Nc2ccc(cc2)S(=O)(=O)c2ccc(cc2)NC(=O)CN2CCN(CC2)CC(=O)Nc2ccc(cc2)S(=O)(=O)c2ccc(cc2)N1` has TGI of > 90.4 µM

Summary line: `N=C(N)c1ccc(-c2ccc(-c3ccccc3)o2)o1` , NCI-H23 lung, reported TGI = 19.8 µM

GET /values?item= CC(=O)Oc1ccc(C2SCc3nc4ccccc4n32)cc1 (stereo not given) &system= NCI-H23 lung returns TGI: > 100 µM

Reported NCI-H23 lung TGI for item `O=c1cc(/C=C/c2ccccc2)c2ccc(O/C(=C\c3ccccc3)c3nc4ccccc4c(=O)o3)cc2o1` was 28.7 µM

With NCI-H23 lung as the test system, `COc1cc2c(cc1OC)-c1c(c3ccc([N+](=O)[O-])cc3c(=O)n1CCCBr)C2=O` showed TGI of 67.5 µM

With NCI-H23 lung as the test system, `O=c1[nH]nc(-c2ccccc2)c2[nH]c3c(c12)CCCc1ccccc1-3` showed TGI of > 100 µM

The observed TGI for Cc1cccc(C)c1NC(=O)/C(CC(=O)CC(c1ccccc1)c1c(O)c2ccccc2oc1=O)=N/O (stereo not given) when tested with NCI-H23 lung stands at > 100 µM

Record NC(CSC(c1ccccc1)(c1ccccc1)c1ccc(Br)cc1)C(=O)O (stereo not given) / NCI-H23 lung, TGI recorded as 66.7 µM

Measured on NCI-H23 lung, `O=C1C=C(NCCc2ccc(O)cc2)C(=O)C=C1NCCc1ccc(O)cc1` has a documented TGI of > 100 µM

// compound `COc1ccc2c(c1)[n+](=O)c(C(=O)C/C(=N\NC(=O)C[N+](C)(C)C)C(=O)Nc1cc(Cl)ccc1Cl)c(C)n2O` , assay NCI-H23 lung, TGI value: > 100 µM

Let me check: COc1ccccc1N1C(=O)/C(=C\c2ccccc2)SC1c1cc(OC)c(OC)c(OC)c1 (stereo not given) , system NCI-H23 lung, measured TGI is > 100 µM

Observed TGI, NCI-H23 lung, `C=CCOc1ccc2c(c1)CC[C@@H]1[C@@H]2CC[C@]2(C)C(=O)/C(=N/O)C[C@@H]12` : 52.8 µM
